System: RSK3(Kin.Dom.2-C-terminal);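 further: KINOMEscan kinase panel screen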
Construct: gene RPS6KA2
Measurement context: concentration: 1 μM, replicates: in singlicate; n = 1
Binarize %Inh at 10%; below is true (1), at or above is false (0).

{"columns": ["Molecule", "Group"],
 "data": [
  ["CS(=O)(=O)CCNCc1nc(-c2ccc3ncnc(Nc4ccc5c(cnn5Cc5ccccc5)c4)c3c2)cs1.Cl.Cl", "true (1)"],
  ["Cl.Cl.Cl.N#Cc1ccc(CCNc2nccc(-c3cccc(CN4CCNCC4)c3)n2)cc1", "false (0)"],
  ["Nc1ncnc2occ(-c3ccc4c(c3)CCN4C(=O)Cc3cc(F)ccc3F)c12", "false (0)"],
  ["COc1cccc(NC(=O)Nc2ccc(C)c(-c3ccc(C(=O)Nc4ccncc4)cc3)c2)c1", "false (0)"],
  ["O=C(Nc1n[nH]c2nc(-c3ccco3)c(Br)cc12)C1CCN(Cc2ccccc2)C1.O=C(O)[C@H](O)[C@@H](O)C(=O)O (centres unmarked)", "true (1)"],
  ["Cn1cncc1-c1cc2c(Nc3ccc(OCc4ccccc4)cc3)ncnc2cn1", "true (1)"],
  ["COC(=O)C(NC(=O)NC1CCN(c2ccnc(Nc3ccc(F)cc3)n2)C1)c1ccccc1 (centres unmarked)", "false (0)"]
]}

Asked: Just wondering, is %Inh of `O=C(Nc1n[nH]c2cc(-c3ccsc3)ccc12)C1CC1` below 10%?
Given back: false (0)

Sourced from paper PMC5540273
